Parameter: pEC50. Scope: all listed entries.
Test system: NL-RLuc virus
assay-explanation: Inhibition of HIV replication (NL-RLuc luciferase reporter virus in MT-2 cells)
Type: cell-based, human immunodeficiency virus (HIV)
details: recombinant NL-Rluc virus infecting MT-2 cells, 5 days of incubation, luciferase readout; at least 2 experiments; serum condition not given (10% FBS, 15 mg/ml human serum albumin/10% FBS or 40% human serum/5% FBS)
// scale note: pEC50 = -log10(conc_M); give the bare number

compound | pEC50
Cc1nc2cc3nn2c(c1[C@H](OC(C)(C)C)C(=O)O)-c1ccc2c(c1Cl)N(C/C=C/COc1cc(F)ccc1CNC3=O)CCO2 (single isomer, unassigned) [Example 4] | 5.84

## Task Fill in the blank: the reported pEC50 of Cc1nc2cc3nn2c(c1[C@H](OC(C)(C)C)C(=O)O)N1CCC(C)(CC1)OCCCCOc1ccccc1CC(O)CNC3=O (single isomer, unassigned) [Example 22] is ____.
## Result 7.24

## Task Another compound: Cc1nc2cc3nn2c(c1[C@H](OC(C)(C)C)C(=O)O)-c1ccc2c(c1Cl)N(C/C=C/COc1cc(F)ccc1CNC3=O)CCO2 (single isomer, unassigned) [Example 2]
## Result 7.51

## Task Query Cc1nc2cc3nn2c(c1[C@H](OC(C)(C)C)C(=O)O)-c1ccc2c(c1Cl)N(CC/C=C\Oc1cc(F)ccc1CNC3=O)CCO2 (single isomer, unassigned) [Example 5] next
## Result 4.92

## Task Also, Cc1nc2cc3nn2c(c1[C@H](OC(C)(C)C)C(=O)O)N1CCC(C)(CC1)OCCCCOc1ccccc1CC(O)CNC3=O (single isomer, unassigned) [Example 21] please.
## Result 6.87

## Task Now the compound Cc1nc2cc3nn2c(c1[C@H](OC(C)(C)C)C(=O)O)-c1ccc2c(c1Cl)N(CC/C=C\Oc1cc(F)ccc1CNC3=O)CCO2 (single isomer, unassigned) [Example 3]
## Result 7.38
